# System: Ambrosia artemisiifolia (AMBEL), common ragweed
# assay method text: Postemergence herbicide evaluation, growth of Ambrosia artemisiifolia (AMBEL)
# Assay type: in vivo
# run conditions: Ambrosia artemisiifolia, post-emergence, 336 h, 560 g ae/ha, 14 DAA, percent reduction in plant size relative to untreated control; read-out: AVE. AMBEL
Criterion: pest or weed control at 560 g/ha strictly under 90%. Met: Condition met. Not met: Condition not met.

Examples with answers:
> print(dat)
                                smiles.repr                       experimental.target        group.label
1  CCOC(=O)C(=NOC(=O)COc1ccc(Cl)cc1Cl)C(=O)OCC  Ambrosia artemisiifolia (AMBEL), common ragweed  Condition not met
2  C/C(C/C(C)=N/OC(=O)COc1ccc(Cl)cc1Cl)=N\OC(=O)COc1ccc(Cl)cc1Cl  Ambrosia artemisiifolia (AMBEL), common ragweed  Condition not met
3   CN(NC(=O)COc1ccc(Cl)cc1Cl)C(=O)c1ccccc1  Ambrosia artemisiifolia (AMBEL), common ragweed  Condition not met
4  Cn1c(O)c(C(=O)COc2ccc(Cl)cc2Cl)c2ccccc21  Ambrosia artemisiifolia (AMBEL), common ragweed      Condition met

Now, please, on to the next compound.
q: Item `CC(=O)/C(C)=N/OC(=O)COc1ccc(Cl)cc1Cl` : pest or weed control at 560 g/ha beneath 90%, strictly?
a: Condition not met

----------
Answer each item with its documented pest or weed control at 560 g/ha.
# Test system: Amaranthus rudis (AMATA), tall water hemp
# assay method text: Postemergence herbicide evaluation, growth of Amaranthus rudis (AMATA)
# Type: in vivo
# run conditions: Amaranthus tuberculatus, post-emergence, 504 h, 560 g ae/ha, 21 DAA; read-out: Ave. AMATA, percent reduction in plant size relative to the untreated control
One number for each entry, in %.

Dear colleague, could you please provide pest or weed control at 560 g/ha for the compounds listed below?
1. N/C(=N\OC(=O)COc1ccc(Cl)cc1Cl)c1ccccc1
2. CC(C)CONC(=O)COc1ccc(Cl)cc1Cl
3. C[N+](C)(C)CCOC(=O)COc1ccc(Cl)cc1Cl.[Cl-]

a:
1: 70; 2: 100; 3: 83

----------
Answer each item with its documented pest or weed control at 280 g/ha.
# Test system: weeds ABUTH, AMATA, AMBEL, CHEAL, ERICA
# assay method text: Postemergence herbicide evaluation, overall average % weed control (ABUTH, AMATA, AMBEL, CHEAL, ERICA)
# Format: in vivo
# run conditions: post-emergence, 336 h, read-out: Overall Ave % Weed Control
Numbers only, in %.

Some entries whose results are on file:
> print(dat)
                                   compound                    endpoint.label  result.units  recorded.value
1        O=C(COc1ccc(Cl)cc1Cl)n1ncc2ccccc21  pest or weed control at 280 g/ha             %              64
2  O=C(COc1ccc(Cl)cc1Cl)OCc1ccc(COC(=O)COc2ccc(Cl)cc2Cl)cc1  pest or weed control at 280 g/ha             %              21
3  O=C(COc1ccc(Cl)cc1Cl)Nc1ccncc1 [Compound D1]  pest or weed control at 280 g/ha             %              83

With those in mind, consider the next compound.
q: If you can, please state the reported pest or weed control at 280 g/ha value of `O=C(COc1ccc(Cl)cc1Cl)OCCOCCOC(=O)COc1ccc(Cl)cc1Cl` .
a: 83
